Listed here are compounds together with their documented growth.
# Test system: MCF7 breast
# TEST: NCI-60 one-dose screen, 48 h (100 = growth as untreated, 0 = no growth, -100 = all killed)
# SETUP CONDITIONS: 10 µM unless noted
Compounds without any hit were thinned out: in the full panel of roughly 83,000, 20% have a hit.
Number only, in %; omit the unit.

Take a look at these entries with their results.
{"COMPOUND": "CC(=O)NC1C(O[C@H]2C[C@H]3[C@@H]4CC=C5C[C@@H](O)CC[C@]5(C)[C@H]4CC[C@]3(C)[C@H]2[C@H](C)C(=O)CCC(C)C)OCC(O)C1O (stereo not given in full)", "SUBJECT OF TEST": "MCF7 breast", "growth (%)": 43.4}
{"COMPOUND": "C=CCCCCOc1cccc(/C=C2\\N=C3SCCCN3C2=O)c1", "SUBJECT OF TEST": "MCF7 breast", "growth (%)": 88.9}
{"COMPOUND": "CS(=O)(=O)c1ccc(C(=O)N/N=C/c2ccc3c(c2)OCO3)cc1", "SUBJECT OF TEST": "MCF7 breast", "growth (%)": 95}
{"COMPOUND": "CCN1C(=O)N(CC)C2C1NN=c1s/c(=C\\c3ccc(Br)cc3)c(=O)n12 (stereo not given)", "SUBJECT OF TEST": "MCF7 breast", "growth (%)": 1.61}

## Task What value of growth has been recorded for this entry: Nc1c(N)c2ccccc2c2ccccc12
## Result 98.3

## Task Would you kindly share the measured growth for Clc1cccc(CNc2c3ccccc3nc3ccccc23)c1 ?
## Result 0.909

## Task Item under review: O=C(Nc1cccc(Cl)c1)Nc1ccccc1Cl . Reported growth?
## Result 77.8

## Task # lookup: growth of O=C1SCN(Cc2ccccc2)CN1Cc1ccccc1
## Result 22.1

## Task Bench note: what growth did COc1cnc2c(c1)C(=O)c1c-2n(CCCN2CCCC2)c(=O)c2cc(Cl)ccc12 show?
## Result -46.1

## Task Look up growth: COC(=O)c1ccc2c(c1)nc(-c1cc3ccccc3[nH]c1=O)n2-c1cc(C(C)(C)C)[nH]n1
## Result 58.1
